Assignment: determine reported Enzyme Activity Endpoint Assay (purified): Fc for the given proteins.
target: pooled human IgG
Write it as a number; the unit ng/µL goes unstated.

q: Given the protein PRT-306 (protein) MVTSVWTKGVTPPTDFIKGEDVFHAPYDAGQGWYDITKEFNGKDDLLCGAATAGNMLHWWFDQNKEYIEAYLKKHPEKQKIMFGDQELLDVRKAINTKGSQKNSELFNYFRDKAFPNLSARRLGVMPDLVLDMFINGYYLNVTKTQTTDVNRTYQEKDKRGGIFDAVFTRGDQSKLLTSRHDFKEKGLKEISDLIKQELTEGKALGLSHTYANVRIGHVINLWGADFDSDGNLKAIYVTDSDSNASIGMKKYGVGVNSAGKVAISAKEIKEDNIGAQVLGLFTLSTGQDIWNQTN , write its reported Enzyme Activity Endpoint Assay (purified): Fc.
a: 336

q: Given the protein PRT-153 (protein) MANQEIRYSEVTPYHVTSVWTKGVTPPANFTQGEDVFHAPYVANQGWYDITKTFNGKDDLLCGAATAGNMLHWWFDQNKTQIERYLKKHPEKQKINFNGEQMFDVKEAIDTKNHQLDSKLFEYFKEKAFPYLSTKHLGVFPDHVIDMFINGYRLSLTNHGPTPVKEGSKDPRGGIFDAVFTRGDQSKLLTSRHDFKEKNLKEISDLIKKELTEGKALGLSHTYANVRINHVINLWGADFDSNGNLKAIYVTDSDSNASIGMKKYFVGVNSAGKVAISAKEIKEDNIGAQVLGLFTLSTGKDSWKKTN , write its reported Enzyme Activity Endpoint Assay (purified): Fc.
a: 190

Origin of measurements: patent US20250027068
